assay: Stability in human HeLa cell homogenate assessed as half life by LC-MS/MS analysis; type: ADME, cell-based
Where a SMILES comes first, the peptide text is derived from it. Bridges are numbered along the chain shown (N, C = ends). [ ]: non-standard residue; d: D form. Cha = N[C@@H](CC1CCCCC1)C(=O)O; hLeu = CC(C)CC[C@H](N)C(=O)O; Nle = CCCC[C@H](N)C(=O)O; Nva = CCC[C@H](N)C(=O)O
Give half-life for every item shown.
Answers are plain numbers, in min.

CC[C@H](C)[C@@H]1NC(=O)[C@H](Cc2ccc(O)cc2)NC(=O)[C@H](CC(C)C)NC(=O)[C@@H]2CCCN2C(=O)[C@@H](NC(=O)[C@H](CCCNC(=N)N)NC(=O)[C@H](CCCNC(=N)N)NC(C)=O)CSSC[C@@H](C(=O)N[C@@H](CCCNC(=N)N)C(=O)N[C@@H](CCCNC(=N)N)C(N)=O)NC(=O)[C@H](C(C)C)NC(=O)[C@@H]2CCCN2C(=O)[C@H](CC(=O)O)NC(=O)[C@H](C(c2ccccc2)c2ccccc2)NC(=O)[C@H](CO)NC1=O = 30
CC(=O)N[C@@H](CCCNC(=N)N)C(=O)N[C@@H](CCCNC(=N)N)C(=O)N[C@H]1CSSC[C@@H](C(=O)N[C@@H](CCCNC(=N)N)C(=O)N[C@@H](CCCNC(=N)N)C(N)=O)NC(=O)[C@H](C(C)C)NC(=O)[C@@H]2CCCN2C(=O)[C@H](CC(=O)O)NC(=O)[C@H](Cc2ccc(O)cc2)NC(=O)[C@H](CO)NC(=O)[C@H](CCC(C)C)NC(=O)[C@H](CC2CCCCC2)NC(=O)[C@H](CC(C)C)NC(=O)[C@@H]2CCCN2C1=O (Ac-RRCPL[Cha][hLeu]SYDPVCRR-NH2; disulfide 3-13) = 25
CCCC[C@@H]1NC(=O)[C@H]([C@@H](C)CC)NC(=O)[C@H](Cc2ccc(O)cc2)NC(=O)[C@H](CC(C)C)NC(=O)[C@@H]2CCCN2C(=O)[C@@H](NC(=O)[C@H](CCCNC(=N)N)NC(=O)[C@H](CCCNC(=N)N)NC(C)=O)CSSC[C@@H](C(=O)N[C@@H](CCCNC(=N)N)C(=O)N[C@@H](CCCNC(=N)N)C(N)=O)NC(=O)[C@H](C(C)C)NC(=O)[C@@H]2CCCN2C(=O)[C@H](CC(=O)O)NC(=O)[C@H](Cc2ccc(O)cc2)NC1=O (Ac-RRCPLYI[Nle]YDPVCRR-NH2; disulfide 3-13) = 25
CCC[C@@H]1NC(=O)[C@H](CC2CCCCC2)NC(=O)[C@H](CC(C)C)NC(=O)[C@@H]2CCCN2C(=O)[C@@H](NC(=O)[C@H](CCCNC(=N)N)NC(=O)[C@H](CCCNC(=N)N)NC(C)=O)CSSC[C@@H](C(=O)N[C@@H](CCCNC(=N)N)C(=O)N[C@@H](CCCNC(=N)N)C(N)=O)NC(=O)[C@H](C(C)C)NC(=O)[C@@H]2CCCN2C(=O)[C@H](CC(=O)O)NC(=O)[C@H](Cc2ccc(O)cc2)NC(=O)[C@H](CO)NC1=O (Ac-RRCPL[Cha][Nva]SYDPVCRR-NH2; disulfide 3-13) = 27

State the recorded half-life for this entry: CCC[C@@H]1NC(=O)[C@H](Cc2ccc(O)cc2)NC(=O)[C@H](CC(C)C)NC(=O)[C@@H]2CCCN2C(=O)[C@@H](NC(=O)[C@H](CCCNC(=N)N)NC(=O)[C@H](CCCNC(=N)N)NC(C)=O)CSSC[C@@H](C(=O)N[C@@H](CCCNC(=N)N)C(=O)N[C@@H](CCCNC(=N)N)C(N)=O)NC(=O)[C@H](C(C)C)NC(=O)[C@@H]2CCCN2C(=O)[C@H](CC(=O)O)NC(=O)[C@H](Cc2ccc(O)cc2)NC(=O)[C@H](CO)NC1=O (Ac-RRCPLY[Nva]SYDPVCRR-NH2; disulfide 3-13) 19
